- Measurement target: LFA-1 binding to immobilized ICAM-1 (Homo sapiens, UniProt P05107+P20701)
- Construct: made in house; host or cells: transfected 293 cells (LFA-1)
- Sequence (P20701 26-1170): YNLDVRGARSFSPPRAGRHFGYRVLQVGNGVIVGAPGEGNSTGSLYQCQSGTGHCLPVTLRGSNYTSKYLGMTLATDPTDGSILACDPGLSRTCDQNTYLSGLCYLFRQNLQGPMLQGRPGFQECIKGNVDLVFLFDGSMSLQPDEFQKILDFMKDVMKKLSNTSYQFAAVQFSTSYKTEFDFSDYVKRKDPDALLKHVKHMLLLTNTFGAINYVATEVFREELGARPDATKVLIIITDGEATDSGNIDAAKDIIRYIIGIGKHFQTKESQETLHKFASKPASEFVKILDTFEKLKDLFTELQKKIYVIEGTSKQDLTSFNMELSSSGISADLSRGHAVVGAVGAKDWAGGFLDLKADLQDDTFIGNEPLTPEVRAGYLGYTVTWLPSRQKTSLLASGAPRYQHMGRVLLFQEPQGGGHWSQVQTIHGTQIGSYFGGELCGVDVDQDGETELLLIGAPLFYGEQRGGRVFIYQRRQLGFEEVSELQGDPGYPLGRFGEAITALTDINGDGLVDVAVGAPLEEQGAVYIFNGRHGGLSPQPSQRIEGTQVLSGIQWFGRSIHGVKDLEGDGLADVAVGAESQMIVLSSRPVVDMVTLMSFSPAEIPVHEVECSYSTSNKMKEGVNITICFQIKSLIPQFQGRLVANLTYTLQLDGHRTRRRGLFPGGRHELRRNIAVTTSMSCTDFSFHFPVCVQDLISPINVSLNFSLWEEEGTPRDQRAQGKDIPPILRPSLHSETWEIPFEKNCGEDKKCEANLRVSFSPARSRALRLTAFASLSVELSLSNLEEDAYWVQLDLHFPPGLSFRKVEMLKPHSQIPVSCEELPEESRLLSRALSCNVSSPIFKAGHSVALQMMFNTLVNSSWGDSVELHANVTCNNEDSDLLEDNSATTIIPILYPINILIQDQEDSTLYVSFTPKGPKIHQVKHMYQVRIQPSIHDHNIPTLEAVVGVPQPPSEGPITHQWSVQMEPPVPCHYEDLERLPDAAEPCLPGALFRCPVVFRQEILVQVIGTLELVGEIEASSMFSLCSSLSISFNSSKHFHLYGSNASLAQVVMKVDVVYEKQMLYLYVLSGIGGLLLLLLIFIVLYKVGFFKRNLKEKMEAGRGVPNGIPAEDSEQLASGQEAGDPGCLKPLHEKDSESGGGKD
- Sequence (P05107 23-769): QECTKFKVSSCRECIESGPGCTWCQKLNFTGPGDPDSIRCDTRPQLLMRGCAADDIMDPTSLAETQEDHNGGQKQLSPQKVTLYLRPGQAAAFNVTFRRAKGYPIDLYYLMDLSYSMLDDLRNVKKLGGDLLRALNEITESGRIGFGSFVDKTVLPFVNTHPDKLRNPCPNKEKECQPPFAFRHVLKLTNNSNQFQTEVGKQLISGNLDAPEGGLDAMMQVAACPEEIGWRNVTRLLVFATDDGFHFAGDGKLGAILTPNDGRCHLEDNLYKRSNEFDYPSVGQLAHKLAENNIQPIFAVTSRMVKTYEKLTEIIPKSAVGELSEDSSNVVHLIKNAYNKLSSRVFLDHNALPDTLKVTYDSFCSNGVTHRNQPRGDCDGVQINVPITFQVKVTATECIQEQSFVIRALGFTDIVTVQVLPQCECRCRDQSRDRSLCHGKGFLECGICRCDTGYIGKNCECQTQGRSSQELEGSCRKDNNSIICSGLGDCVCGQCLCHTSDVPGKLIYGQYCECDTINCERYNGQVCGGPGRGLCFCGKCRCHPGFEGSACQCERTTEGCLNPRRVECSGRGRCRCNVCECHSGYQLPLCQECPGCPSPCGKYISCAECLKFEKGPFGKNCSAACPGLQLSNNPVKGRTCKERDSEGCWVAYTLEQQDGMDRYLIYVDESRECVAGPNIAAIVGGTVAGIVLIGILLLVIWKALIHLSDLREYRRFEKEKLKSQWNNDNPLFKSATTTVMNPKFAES
- Experimental protocol: LFA-1/ICAM-1 Protein-Protein Assay (solid-phase ELISA)
- Measurement setup: 5dICAM-Ig coated plates; membrane-bound LFA-1 from transfected 293 cells
pIC50: −log10 of the molar value.
Parameter: pIC50

{"Line notation": "O=C(O)/C(=C/c1cnc(N2CCOCC2)s1)NC(=O)c1ccc(C(=O)NCc2cccc(O)c2)cc1Br", "Measurement target": "LFA-1 binding to immobilized ICAM-1 (Homo sapiens, UniProt P05107+P20701)", "Observed result": 7.40}

(a) O=C(O)/C(=C/c1ccccn1)NC(=O)c1ccc(C(=O)NCc2cccc3[nH]ccc23)cc1Cl
(b) Cc1cc(C(=O)NCc2cccc(O)c2)cc(Cl)c1C(=O)N/C(=C\c1cnc2ccccc2c1)C(=O)O
(c) O=C(O)/C(=C/c1cccnc1)NC(=O)c1ccc(C(=O)NCc2cccc(O)c2)cc1Br
Rank ascending by pIC50. Dear reader, please state the labels in the requested order.
a, c, b

Origin of measurements: patent US6515124B2
